system: OVCAR-4 ovarian; experiment: NCI-60 one-dose screen, 48 h (100 = growth as untreated, 0 = no growth, -100 = all killed); conditions: 10 µM unless noted
Compounds without any hit were thinned out: in the full panel of roughly 83,000, 20% have a hit. Active and inactive are the calls of the source. How the source made its calls: active means growth percent below 10; inactive means the rest.
Parameter: growth

# return recorded growth for input `O=C(O)CCC(=O)OC[C@@H](NC(=O)C(Cl)Cl)[C@H](O)c1ccc([N+](=O)[O-])cc1`
102% (inactive)

Check the records and state growth for `O=C1C(=O)/C(=C/c2ccccc2)CCCCCC/C1=C/c1ccccc1`
60.9% (inactive)

====

test system: OVCAR-4 ovarian; test: NCI-60 one-dose screen, 48 h (100 = growth as untreated, 0 = no growth, -100 = all killed); conditions: 10 µM unless noted
The panel holds about 83,000 compounds, 20% with a hit somewhere; the sample as a whole holds those more often.
growth vs 40%: less than gives 1.0; not less than gives 0.0.

Reference set, count: 5
Would you kindly verify if growth of `Cc1ccc(S(=O)(=O)NCCN2c3nc4ccccc4cc3Sc3cc4ccccc4nc32)cc1` is strictly less than 40%?
1.0

Would you kindly verify if growth of CCOC(=O)C1=CCC(n2cc(C)c(=O)[nH]c2=O)O1 (stereo unspecified) is strictly less than 40%?
0.0

Decide: growth of `O=C(Nc1ccccc1S)c1ccccc1` strictly below 40%?
0.0

API: query returns whether the molecule falls strictly under 40% in growth. Query: `CCN(CC)CCCCCCCNc1c2ccc(Cl)cc2nc2ccc(OC)cc12`
1.0

Consider `COc1c(O)cc2c(c1CC=C(C)C)OC(=O)c1c(cc(O)c(CC=C(C)C)c1O)O2` . Does its growth lie strictly below 40%?
0.0

Continuing:
Consider the molecule `C=C(CN1CCc2c([nH]c3ccccc23)C1)c1ccc(C(=O)Nc2ccon2)cc1` . Is its growth strictly less than 40%?
0.0

====

tested on: HS 578T breast; experiment: NCI-60 one-dose screen, 48 h (100 = growth as untreated, 0 = no growth, -100 = all killed); settings: 10 µM unless noted
This is part of a sample that, as a whole, favours compounds with a hit. Of some 83,000 tested, about 20% had one in any assay.
Measured growth by item
A number alone suffices; assume %.

Tell me growth reported for `O=C(O)CCNS(=O)(=O)c1ccc(-c2ccccc2)cc1`
9.34

Indicate the recorded growth value for this compound: `N/C(=N\c1nc2ccccc2s1)NC(=O)Nc1ccccc1Cl`
30

State, in one line, measured growth of `Nc1ccc2c(c1Br)Cc1ccccc1-2`
95.4

Dear colleague, please send me the reported growth for `COc1cccc(/C=C2\Cc3ccccc3C2=O)c1` when you can.
111

Output measured growth for this item: CC[C@@H](C)/C=C(C)/C=C/C(=O)c1c(O)c(-c2ccc(O)cc2)cn(OC2CC(=O)CCC(C)OC(=O)CC2O)c1=O (stereo not given in full)
35.1

Using the record for OC(c1ccccc1)C(NCc1ccccc1)c1ccccc1 (stereo not given) , state its measured growth.
107

Output growth of `Cc1cc(C)c2c(N)c3cccc(C)c3nc2n1`
73.2

Look up and report measured growth for this entry: `COc1cccc(/C=N/Nc2nc3ccccc3s2)c1OC`
97.9

Further cases:
Provide measured growth value, entry: `O=C(NC1CCCCC1)c1ccc(Nc2ncnc3c2cnn3-c2ccccc2)cc1`
0.218

Quick one: give measured growth for `N#Cc1ncc(-c2ccc(C(F)(F)F)cc2)c(NC2CCCCCC2)n1`
46.5

Answer with the recorded growth for the compound listed here: `COc1cccc(N2CCN(CC(=O)N3CCN(c4nnc(-c5ccc(Cl)cc5)c(-c5ccc(Cl)cc5)n4)CC3)CC2)c1`
58.4

Identify measured growth corresponding to CCCCCCC(CC#N)(CCC)CCCC (stereo not given)
95.3

Look up and report measured growth for this entry: `O=Cc1ccccc1C(=O)O`
100

Return growth (reported value) for this compound: `Nc1ccccc1-c1ccn[nH]1`
100

Recall and state the measured growth for `COc1cc(-c2nnc(-c3nc(-c4cc(OC)c(OC)c(OC)c4)n4ccccc34)o2)ccc1N` .
44.2

Could you please provide reported growth for `N#Cc1c(NC(=O)c2ccco2)[n+]([O-])c2ccccc2[n+]1[O-]` ? Thanks!
98

Could you please provide reported growth for `CC(=O)Nc1c(Cl)cc2c(c1Cl)Cc1cc([N+](=O)[O-])ccc1-2` ? Thanks!
34.6

Give growth for the following compound: `COc1ccc(/C=C2/SC(=Nc3c(C)nn(-c4ccccc4)c3N)NC2=O)cc1`
31.7

Retrieve growth measured for COc1ccc(C2=NN(C(N)=S)C(c3ccc4c(c3)OCO4)C2)cc1 (stereo not given) and print it.
-13

Kindly indicate its recorded growth. Item: `COc1ccc(C(=O)COc2ccc(/C=C3\Oc4ccc5ccccc5c4C3=O)cc2)cc1`
96.3

====

system: SK-MEL-28 melanoma; assay: NCI-60 one-dose screen, 48 h (100 = growth as untreated, 0 = no growth, -100 = all killed); details: 10 µM unless noted
Compounds without any hit were thinned out: in the full panel of roughly 83,000, 20% have a hit.
Binary call on growth with cut-off 90%: strictly below means label 1, and equality or higher means label 0.

A selection of reference data follows.
Threshold test, growth < 90%: `O=C(COc1cccc(/C=C2\Oc3ccc4ccccc4c3C2=O)c1)c1ccc([N+](=O)[O-])cc1`
label 0

# strict comparison: is reported growth < 90%? input = Cc1ccc(C(NC(=O)c2ccccc2)c2ccc3cccnc3c2O)cc1 (stereo not given)
label 1

In plain terms, does `CC(=O)c1ccc(NS(=O)(=O)c2ccc([N+](=O)[O-])cc2)cc1` come in under 90% for growth?
label 0

Others:
Dear colleague, could you confirm whether growth of `Oc1c(N=Nc2nn[nH]n2)ccc2ccccc12` falls below 90%? Thanks.
label 0

Lab note: growth threshold 90%. Does this molecule come in strictly under it? `O=C(/C=C/c1ccc([N+](=O)[O-])cc1)c1ccc2c3c(cccc13)CC2`
label 1

Item `O=C1NC(=S)S/C1=C\c1cc(Br)ccc1O` : growth beneath 90%, strictly?
label 0

Answer whether the molecule `Cc1ccc2nc3c(n2c1)C(=O)C(=O)c1ccccc1-3` has growth strictly less than 90%
label 1

Hello, I'm reviewing records and need to know if growth of `c1ccc(COc2ccc(Nc3ncnc4c3cnn4-c3ccccc3)cc2)cc1` is below 90%. Could you check?
label 0

Does this molecule meet the criterion growth < 90%? `O=C(Nc1ccccc1)c1cc(-n2cnc([N+](=O)[O-])c2)cc(-n2cnc([N+](=O)[O-])c2)n1`
label 0

Find out if reported growth for `N#Cc1c(-c2ccccc2)cc(-c2ccccc2)n(CCCC(=O)O)c1=O` is less than 90%
label 0

Item `COc1ccc(CNC(=O)c2c(C)n([O-])c3ccccc3[n+]2=O)cc1` : growth beneath 90%, strictly?
label 0

Is the reported growth for `CCOC(=O)/C=C1/SC(=Nc2ccc(C#N)cc2)N(Cc2ccco2)C1=O` strictly below 90%?
label 1

Is the reported growth for O=C(O)C1C(c2ccccc2)c2ccccc2C(O)C1CO (stereo not given) strictly below 90%?
label 0

====

test system: IGROV1 ovarian; test: NCI-60 one-dose screen, 48 h; conditions: 10 µM unless noted
Compounds without any hit were thinned out: in the full panel of roughly 83,000, 20% have a hit. Activity calls are given as the source filed them. Rule for the calls: active = growth percent below 10; inactive = the rest.
Can you answer with just one of these options? label 1 (active), label 0 (inactive)

Assay result, entry CN1C(=O)C(C2=NN(C=O)C(c3ccc(F)cc3)C2)C(=O)N(C)C1=O (stereo unspecified) — outcome?
label 0

Outcome? `COc1ccc([N+](=O)[O-])c(S(=O)(=O)c2ccc(Cl)cc2)n1`
label 0

Record request — test call for `Cc1cc(C)c2c(N)c3cccc(C)c3nc2n1`
label 1

Please let me know the test result on file for `O=C1Nc2ccc(Cl)cc2[C@@](C#CC2CC2)(C(F)(F)F)O1` .
label 1

Any idea what this test logged for `CCOc1cc(/C=C/C(=O)CC(=O)/C=C/c2ccc(OC(=O)CNc3nc4ccc(OC)cc4s3)c(OCC)c2)ccc1OC(=O)CNc1nc2ccc(OC)cc2s1` ?
label 1

---
Can you look up the reported call for `COc1ccc(/C=C/C(=O)c2cccc(NS(C)(=O)=O)c2)cc1` for me?
label 1

Write down the call the test reported for this compound. Item: Cc1ccc(C2=NNC(c3sc(Cl)nc3Cl)C2)cc1 (stereo unspecified)
label 0

What outcome does the record of this test show for `COc1cc(/C=C/c2cc(/C=C/c3ccc(O)c(OC)c3)n(C(=O)c3ccc(Cl)cc3)n2)ccc1O` ?
label 0

What call does the record list for `CC[C@@H](c1ccc(O)c(O)c1)[C@@H](CC)c1ccc(O)c(O)c1` ?
label 0

Check the results log: what was the call for COC(=O)C1=CCC(n2cnc3c(N)ncnc32)O1 (stereo unspecified) ?
label 0

Dear all, I need the recorded test outcome for Cc1ccccc1NC(=O)NC(CC(N)=O)c1ccc2c(c1)nc(-c1cccc(Oc3ccc(C(C)(C)C)cc3)c1)n2CCCN1CCCCC1C (stereo unspecified) , thank you.
label 0

# lookup: test call for `CC(=O)[C@H]1CC[C@H]2[C@@H]3C[C@H](C)C4=CC(=O)CC[C@]4(C)[C@H]3C(=O)C[C@]12C`
label 0
